Test: Tissue distribution of selenium-75-labelled sterols in rats, sixth day post-injection
Format: in vivo, rats of the C.F.Y. strain
Details: male and female rats, tail vein, dose: 1, 7: 40 μCi, 6: 50 μCi, 3: 30 μCi, 4: 1.5 μCi, 5: 10 μCi, 8: 6.3 μCi
Overview of reported % dose kg./g. in Muscle across a group of molecules:

Molecule	% dose kg./g. in Muscle (% dose kg./g.)
CC(C)CCC[C@@H](C)[C@H]1CC[C@H]2[C@@H]3C[C@@H](C[75Se]Cc4ccccc4)C4=C(CC[C@H](O)C4)[C@H]3CC[C@]12C	0.015
CC(C)CCC[C@@H](C)[C@H]1CC[C@H]2[C@@H]3C[C@@H](C[75Se]C4CCCCC4)C4=C(CC[C@H](O)C4)[C@H]3CC[C@]12C	0.012
C[75Se]C[C@@H]1C[C@@H]2[C@H](CC[C@]3(C)[C@@H]([C@H](C)CCCC(C)C)CC[C@@H]23)C2=C1C[C@@H](OC(C)=O)CC2	0.022
C[75Se]C[C@@H]1C[C@@H]2[C@H](CC[C@]3(C)[C@@H]([C@H](C)CCCC(C)C)CC[C@@H]23)C2=C1C[C@@H](O)CC2	0.023
CCCC[75Se]C[C@@H]1C[C@@H]2[C@H](CC[C@]3(C)[C@@H]([C@H](C)CCCC(C)C)CC[C@@H]23)C2=C1C[C@@H](O)CC2	0.012
CC(C)CCC[C@@H](C)[C@H]1CC[C@H]2[C@@H]3C[C@@H](C[75Se]c4ccccc4)C4=C(CC[C@H](O)C4)[C@H]3CC[C@]12C	0.015
CC(C)CCC[C@@H](C)[C@H]1CC[C@H]2[C@@H]3C[C@@H](C[75Se](C)=O)C4=C(CC[C@H](O)C4)[C@H]3CC[C@]12C (stereo partly shown)	0.016

###

Assay: Tissue distribution of selenium-75-labelled sterols in rats, sixth day post-injection
Assay type: in vivo, rats of the C.F.Y. strain
Conditions: male and female rats, tail vein, dose: 1, 7: 40 μCi, 6: 50 μCi, 3: 30 μCi, 4: 1.5 μCi, 5: 10 μCi, 8: 6.3 μCi

Compound	% dose kg./g. in Blood (% dose kg./g.)
CC(C)CCC[C@@H](C)[C@H]1CC[C@H]2[C@@H]3C[C@@H](C[75Se]c4ccccc4)C4=C(CC[C@H](O)C4)[C@H]3CC[C@]12C	0.021
CC(C)CCC[C@@H](C)[C@H]1CC[C@H]2[C@@H]3C[C@@H](C[75Se](C)=O)C4=C(CC[C@H](O)C4)[C@H]3CC[C@]12C (stereo partly drawn)	0.022
CCCC[75Se]C[C@@H]1C[C@@H]2[C@H](CC[C@]3(C)[C@@H]([C@H](C)CCCC(C)C)CC[C@@H]23)C2=C1C[C@@H](O)CC2	0.009

###

Overview of reported Concentration Ratio; Adrenals: Liver across a group of compounds:
Assay: Tissue distribution of selenium-75-labelled sterols in rats, sixth day post-injection
Type: in vivo, rats of the C.F.Y. strain
Settings: rats, tail vein, dose: 1, 7: 40 μCi, 6: 50 μCi, 3: 30 μCi, 4: 1.5 μCi, 5: 10 μCi, 8: 6.3 μCi
Readout: Concentration Ratio; Adrenals: Liver

Compound	Measured
CC(C)CCC[C@@H](C)[C@H]1CC[C@H]2[C@@H]3C[C@@H](C[75Se](C)=O)C4=C(CC[C@H](O)C4)[C@H]3CC[C@]12C (stereo partly shown)	48.3
CCCC[75Se]C[C@@H]1C[C@@H]2[C@H](CC[C@]3(C)[C@@H]([C@H](C)CCCC(C)C)CC[C@@H]23)C2=C1C[C@@H](O)CC2	79.0
CC(C)CCC[C@@H](C)[C@H]1CC[C@H]2[C@@H]3C[C@@H](C[75Se]Cc4ccccc4)C4=C(CC[C@H](O)C4)[C@H]3CC[C@]12C	13.4
C[75Se]C[C@@H]1C[C@@H]2[C@H](CC[C@]3(C)[C@@H]([C@H](C)CCCC(C)C)CC[C@@H]23)C2=C1C[C@@H](O)CC2	163.9
C[75Se]C[C@@H]1C[C@@H]2[C@H](CC[C@]3(C)[C@@H]([C@H](C)CCCC(C)C)CC[C@@H]23)C2=C1C[C@@H](OC(C)=O)CC2	161.1
CC(C)CCC[C@@H](C)[C@H]1CC[C@H]2[C@@H]3C[C@@H](C[75Se]c4ccccc4)C4=C(CC[C@H](O)C4)[C@H]3CC[C@]12C	40.0
CC(C)CCC[C@@H](C)[C@H]1CC[C@H]2[C@@H]3C[C@@H](C[75Se]C4CCCCC4)C4=C(CC[C@H](O)C4)[C@H]3CC[C@]12C	24.9

###

Overview of reported Concentration Ratio; Adrenals: Muscle across a group of molecules:
Assay: Tissue distribution of selenium-75-labelled sterols in rats, sixth day post-injection
Format: in vivo, rats of the C.F.Y. strain
Conditions: rats, tail vein, dose: 1, 7: 40 μCi, 6: 50 μCi, 3: 30 μCi, 4: 1.5 μCi, 5: 10 μCi, 8: 6.3 μCi
Readout: Concentration Ratio; Adrenals: Muscle

Molecule	Readout	Measured
CC(C)CCC[C@@H](C)[C@H]1CC[C@H]2[C@@H]3C[C@@H](C[75Se]C4CCCCC4)C4=C(CC[C@H](O)C4)[C@H]3CC[C@]12C	Concentration Ratio; Adrenals: Muscle	303.1
CC(C)CCC[C@@H](C)[C@H]1CC[C@H]2[C@@H]3C[C@@H](C[75Se]c4ccccc4)C4=C(CC[C@H](O)C4)[C@H]3CC[C@]12C	Concentration Ratio; Adrenals: Muscle	418.9
C[75Se]C[C@@H]1C[C@@H]2[C@H](CC[C@]3(C)[C@@H]([C@H](C)CCCC(C)C)CC[C@@H]23)C2=C1C[C@@H](OC(C)=O)CC2	Concentration Ratio; Adrenals: Muscle	536.3
CCCC[75Se]C[C@@H]1C[C@@H]2[C@H](CC[C@]3(C)[C@@H]([C@H](C)CCCC(C)C)CC[C@@H]23)C2=C1C[C@@H](O)CC2	Concentration Ratio; Adrenals: Muscle	809.6
C[75Se]C[C@@H]1C[C@@H]2[C@H](CC[C@]3(C)[C@@H]([C@H](C)CCCC(C)C)CC[C@@H]23)C2=C1C[C@@H](O)CC2	Concentration Ratio; Adrenals: Muscle	436.7
CC(C)CCC[C@@H](C)[C@H]1CC[C@H]2[C@@H]3C[C@@H](C[75Se]Cc4ccccc4)C4=C(CC[C@H](O)C4)[C@H]3CC[C@]12C	Concentration Ratio; Adrenals: Muscle	355.3
CC(C)CCC[C@@H](C)[C@H]1CC[C@H]2[C@@H]3C[C@@H](C[75Se](C)=O)C4=C(CC[C@H](O)C4)[C@H]3CC[C@]12C (stereo partly shown)	Concentration Ratio; Adrenals: Muscle	274

###

Overview of reported % dose kg./g. in Kidneys across a group of compounds:
Test: Tissue distribution of selenium-75-labelled sterols in rats, sixth day post-injection
Assay type: in vivo, rats of the C.F.Y. strain
Settings: male and female rats, tail vein, dose: 1, 7: 40 μCi, 6: 50 μCi, 3: 30 μCi, 4: 1.5 μCi, 5: 10 μCi, 8: 6.3 μCi
Readout: % dose kg./g. in Kidneys

Compound	Measured
CC(C)CCC[C@@H](C)[C@H]1CC[C@H]2[C@@H]3C[C@@H](C[75Se]c4ccccc4)C4=C(CC[C@H](O)C4)[C@H]3CC[C@]12C [Example 8]	0.062 % dose kg./g.
C[75Se]C[C@@H]1C[C@@H]2[C@H](CC[C@]3(C)[C@@H]([C@H](C)CCCC(C)C)CC[C@@H]23)C2=C1C[C@@H](OC(C)=O)CC2 [Example 6]	0.108 % dose kg./g.
CC(C)CCC[C@@H](C)[C@H]1CC[C@H]2[C@@H]3C[C@@H](C[75Se]Cc4ccccc4)C4=C(CC[C@H](O)C4)[C@H]3CC[C@]12C [Example 5]	0.083 % dose kg./g.
CC(C)CCC[C@@H](C)[C@H]1CC[C@H]2[C@@H]3C[C@@H](C[75Se]C4CCCCC4)C4=C(CC[C@H](O)C4)[C@H]3CC[C@]12C [Example 4]	0.038 % dose kg./g.

###

Assay: Tissue distribution of selenium-75-labelled sterols in rats, sixth day post-injection
Assay type: in vivo, rats of the C.F.Y. strain
Conditions: rats, tail vein, dose: 1, 7: 40 μCi, 6: 50 μCi, 3: 30 μCi, 4: 1.5 μCi, 5: 10 μCi, 8: 6.3 μCi, 8640 min
Overview of reported Concentration Ratio; Adrenals: Blood across a group of molecules:
Readout: Concentration Ratio; Adrenals: Blood

Molecule	Measured
CC(C)CCC[C@@H](C)[C@H]1CC[C@H]2[C@@H]3C[C@@H](C[75Se]Cc4ccccc4)C4=C(CC[C@H](O)C4)[C@H]3CC[C@]12C	126.3
CC(C)CCC[C@@H](C)[C@H]1CC[C@H]2[C@@H]3C[C@@H](C[75Se]c4ccccc4)C4=C(CC[C@H](O)C4)[C@H]3CC[C@]12C	285.8
C[75Se]C[C@@H]1C[C@@H]2[C@H](CC[C@]3(C)[C@@H]([C@H](C)CCCC(C)C)CC[C@@H]23)C2=C1C[C@@H](OC(C)=O)CC2	469.2
C[75Se]C[C@@H]1C[C@@H]2[C@H](CC[C@]3(C)[C@@H]([C@H](C)CCCC(C)C)CC[C@@H]23)C2=C1C[C@@H](O)CC2	433.1
CCCC[75Se]C[C@@H]1C[C@@H]2[C@H](CC[C@]3(C)[C@@H]([C@H](C)CCCC(C)C)CC[C@@H]23)C2=C1C[C@@H](O)CC2	581.9
CC(C)CCC[C@@H](C)[C@H]1CC[C@H]2[C@@H]3C[C@@H](C[75Se]C4CCCCC4)C4=C(CC[C@H](O)C4)[C@H]3CC[C@]12C	137.4
CC(C)CCC[C@@H](C)[C@H]1CC[C@H]2[C@@H]3C[C@@H](C[75Se](C)=O)C4=C(CC[C@H](O)C4)[C@H]3CC[C@]12C (stereo partly shown)	202
